FYI, the data here is from ChEMBL document CHEMBL1153210.

Tested on: Candida albicans
Experiment: Antifungal activity against Candida albicans after 72 to 96 hrs by twofold serial dilution method
Type: functional
Measured MIC accompanies every entry in the list below.
measurement.type: MIC (µg/mL)

[[record]]
compound = "CC1/C(=N/N2C(=O)CNC2=S)CC(c2ccccc2)NC1c1ccccc1 (stereo unspecified)"
result_number = 50

[[record]]
compound = "CC1/C(=N/N2C(=O)CNC2=S)CC(c2ccc(Cl)cc2)NC1c1ccc(Cl)cc1 (stereo unspecified)"
result_number = 50

[[record]]
compound = "O=C1CNC(=S)N1N=C1CC(c2ccccc2)NC(c2ccccc2)C1 (stereo unspecified)"
result_number = 12.5

[[record]]
compound = "CC1(C)/C(=N/N2C(=O)CNC2=S)CC(c2ccccc2)NC1c1ccccc1 (stereo unspecified)"
result_number = 50

[[record]]
compound = "Cc1ccc(C2C/C(=N\\N3C(=O)CNC3=S)C(C)(C)C(c3ccc(C)cc3)N2)cc1 (stereo unspecified)"
result_number = 25

[[record]]
compound = "CC1(C)/C(=N/N2C(=O)CNC2=S)CC(c2ccc(F)cc2)NC1c1ccc(F)cc1 (stereo unspecified)"
result_number = 50

